Measured Maximum inhibition rate %; hIL36αβγ; IL-8 production accompanies every entry in the list below.
Measured Target: T1, IL-36R naturally expressed on OVCAR8 cells and on normal human epidermal keratinocytes (NHK cells) (human, UniProt Q9HB29 20-575)
T1 sequence (looked up): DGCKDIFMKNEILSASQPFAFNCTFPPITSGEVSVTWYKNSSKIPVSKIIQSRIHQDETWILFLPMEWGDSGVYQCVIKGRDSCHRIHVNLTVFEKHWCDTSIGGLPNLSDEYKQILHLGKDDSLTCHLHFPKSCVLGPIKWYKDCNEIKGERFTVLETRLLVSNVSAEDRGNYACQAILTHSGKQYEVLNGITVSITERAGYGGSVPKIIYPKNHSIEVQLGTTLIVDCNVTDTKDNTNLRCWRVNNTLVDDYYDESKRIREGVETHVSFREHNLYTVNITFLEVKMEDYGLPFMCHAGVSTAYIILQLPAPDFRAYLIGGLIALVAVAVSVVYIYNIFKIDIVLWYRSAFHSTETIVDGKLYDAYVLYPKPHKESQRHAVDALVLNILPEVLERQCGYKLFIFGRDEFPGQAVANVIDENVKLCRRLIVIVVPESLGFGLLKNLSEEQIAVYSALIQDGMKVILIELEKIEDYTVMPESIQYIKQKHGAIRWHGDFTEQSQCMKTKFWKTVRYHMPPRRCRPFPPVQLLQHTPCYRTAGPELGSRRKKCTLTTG
Test Protocol: cell-based or functional assay
Write down the numeric answer in % and omit the unit.

# annotated cases, reported Maximum inhibition rate %; hIL36αβγ; IL-8 production shown
hz84C4-1.3 (antibody, human IgG4 S228P, kappa, V domains shown, Humanized, human IgG4 / kappa) VH: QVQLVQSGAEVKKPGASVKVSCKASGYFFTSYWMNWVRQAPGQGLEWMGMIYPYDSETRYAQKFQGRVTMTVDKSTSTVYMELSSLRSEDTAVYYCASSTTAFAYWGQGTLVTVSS VL: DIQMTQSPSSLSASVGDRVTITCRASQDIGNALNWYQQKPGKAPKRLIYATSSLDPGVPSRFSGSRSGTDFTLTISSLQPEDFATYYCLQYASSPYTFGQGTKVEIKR | 44.2
hz84C4-1.5 (antibody, human IgG4 S228P, kappa, V domains shown, Humanized, human IgG4 / kappa) VH: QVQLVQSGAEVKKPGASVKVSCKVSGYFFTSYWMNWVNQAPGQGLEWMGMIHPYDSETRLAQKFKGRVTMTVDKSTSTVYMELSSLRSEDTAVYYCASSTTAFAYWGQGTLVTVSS VL: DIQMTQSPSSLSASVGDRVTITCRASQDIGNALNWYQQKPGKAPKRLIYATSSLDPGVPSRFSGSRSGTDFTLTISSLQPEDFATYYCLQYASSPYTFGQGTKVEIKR | 99.3

Inquiry: I am curious: what Maximum inhibition rate %; hIL36αβγ; IL-8 production value has been reported for hz84C4-2.3 (antibody, human IgG4 S228P, kappa, V domains shown, Humanized, human IgG4 / kappa) VH: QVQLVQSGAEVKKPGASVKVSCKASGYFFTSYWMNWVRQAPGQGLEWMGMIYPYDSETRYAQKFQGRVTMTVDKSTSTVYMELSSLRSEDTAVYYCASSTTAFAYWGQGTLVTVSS VL: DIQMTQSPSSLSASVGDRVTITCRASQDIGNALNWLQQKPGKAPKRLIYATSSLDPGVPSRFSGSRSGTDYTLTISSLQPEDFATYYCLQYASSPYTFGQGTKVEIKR ?
Reply text: 40.6
